# System: FMAL-actin/TMR-cC0-C2 interaction
# assay-procedure: FLT-FRET concentration-response assay, FMAL-actin plus TMR-cC0-C2
# Assay type: binding, human
# condition-set: unphosphorylated cC0-C2
value-type: effect on FLT-FRET / binding between FMAL-actin and TMR-cC0-C2 (in words)

The following compounds have reported results that may help.
{"compound": "Cc1ccc(Nc2c(F)cccc2Cl)c(CC(=O)O)c1 [Lumiracoxib]", "obs-value": "decrease"}
{"compound": "C#Cc1cccc(Nc2ncnc3cc(OCCOC)c(OCCOC)cc23)c1 [Erlotinib]", "obs-value": "decrease"}
{"compound": "COc1cc(Nc2ncc(F)c(Nc3ccc4c(n3)N(COP(=O)(O)O)C(=O)C(C)(C)O4)n2)cc(OC)c1OC [Fostamatinib (R788), Fostamatinib]", "obs-value": "decreased"}
{"compound": "CCCCC(=O)N(Cc1ccc(-c2ccccc2-c2nnn[nH]2)cc1)[C@H](C(=O)O)C(C)C [Valsartan]", "obs-value": "decreased"}

Below: the item to evaluate.
**Q:** // returns reported effect on FLT-FRET / binding between FMAL-actin and TMR-cC0-C2 (in words) for input COC(=O)N[C@H](C(=O)N1CCC[C@H]1c1nc(-c2ccc3c(c2)O[C@@H](c2ccccc2)n2c-3cc3cc(-c4c[nH]c([C@@H]5CCCN5C(=O)[C@@H](NC(=O)OC)C(C)C)n4)ccc32)c[nH]1)C(C)C [Elbasvir]
**A:** decreased

* * *

# System: FMAL-actin plus TMR-cC0-C2
# assay-procedure: Selleck library HTS, 473 nm excitation (FLT of FMAL-actin with TMR-cC0-C2, FLT-FRET)
# Format: binding, human
# condition-set: initial screen, 30 μM compound
*1 amine or outer side, *2 acyl side, *3 side chain or, on linkers, in order; H or OH if unused. Where a SMILES comes first, the peptide text is derived from it. Bridges are numbered along the chain shown (N, C = ends). [ ]: non-standard residue; d: D form. The star is where a group is joined. Orn(4R-OH,5R-OH) = O=C([C@H](C[C@@H](O)[C@@H](O)N[*:3])N[*:1])[*:2]; Tetradecanoyl(10R,12S-Me2) = CC[C@H](C)C[C@H](C)CCCCCCCCC(=O)*; hTyr(3S-OH,4S-OH) = N[C@H](C(=O)O)[C@H](O)[C@@H](O)c1ccc(O)cc1; Gln(3R-OH) = NC(=O)C[C@@H](O)[C@H](N)C(=O)O; Pro(3S-OH) = O=C(O)[C@H]1NCC[C@@H]1O; Hyp = O=C(O)[C@@H]1C[C@@H](O)CN1
value-type: 473-nm Δτ, Repeat 1 (ns)
Report the figure in ns without appending any unit label.

Sample records with 473-nm Δτ, Repeat 1:
{"molecule": "Cc1ccc(NC(=O)c2ccc(CN3CCN(C)CC3)cc2)cc1Nc1nc(-c2cccnc2)cs1", "473-nm Δτ, Repeat 1 (ns)": -0.336}
{"molecule": "CN(C)[C@@H]1C(O)=C(C(N)=O)C(=O)[C@@]2(O)C(O)=C3C(=O)c4c(O)cccc4[C@@](C)(O)[C@H]3[C@H](O)[C@@H]12", "473-nm Δτ, Repeat 1 (ns)": 0.175}
{"molecule": "COc1ccc(CN(CCN(C)C)c2ncccn2)cc1", "473-nm Δτ, Repeat 1 (ns)": 0.012}

// next entry
**Q:** Quick one: 473-nm Δτ, Repeat 1 of CC[C@H](C)C[C@H](C)CCCCCCCCC(=O)N[C@H]1C[C@@H](O)[C@@H](O)NC(=O)[C@@H]2[C@@H](O)CCN2C(=O)[C@H]([C@H](O)CC(N)=O)NC(=O)[C@H]([C@H](O)[C@@H](O)c2ccc(O)cc2)NC(=O)[C@@H]2C[C@@H](O)CN2C(=O)[C@H]([C@@H](C)O)NC1=O [Pneumocandin B0] ({Tetradecanoyl(10R,12S-Me2)}-[Orn(4R-OH,5R-OH)]T[Hyp][hTyr(3S-OH,4S-OH)][Gln(3R-OH)][Pro(3S-OH)]; lactam 1-C) ?
**A:** -0.050
